What IC50 was measured for each of the following?
target: human orexin-2 receptor (Homo sapiens (Human), UniProt O43614); assay: In vitro assay: intracellular calcium measurements (FLIPR), antagonistic activity; details: CHO cells expressing human orexin-2 receptor, orexin-A agonist, geometric mean, read-out: IC50 Ox2
Sequence (O43614 whole entry): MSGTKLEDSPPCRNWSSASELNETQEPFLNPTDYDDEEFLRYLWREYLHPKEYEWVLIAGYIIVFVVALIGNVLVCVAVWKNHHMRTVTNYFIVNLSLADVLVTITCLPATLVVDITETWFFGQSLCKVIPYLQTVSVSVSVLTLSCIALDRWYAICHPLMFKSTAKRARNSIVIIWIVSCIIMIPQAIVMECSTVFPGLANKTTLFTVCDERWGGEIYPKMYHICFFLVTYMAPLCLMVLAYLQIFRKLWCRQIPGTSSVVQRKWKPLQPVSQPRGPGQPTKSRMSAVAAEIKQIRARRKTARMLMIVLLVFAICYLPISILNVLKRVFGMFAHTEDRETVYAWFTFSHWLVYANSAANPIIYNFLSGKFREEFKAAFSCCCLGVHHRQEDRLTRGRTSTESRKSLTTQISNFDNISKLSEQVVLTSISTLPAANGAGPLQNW
Answers are plain numbers, in nM.

The following compounds have reported results that may help.
compound="CSc1cccc2nc([C@@H]3CCCN3C(=O)c3cnc(C)nc3-c3ccc(Cl)c(Cl)c3)[nH]c12 [Ex. 1.79]" parameter_measured=IC50 reported_measurement=46
compound="C=C1C[C@@H](c2nc3cc(OC)ccc3[nH]2)N(C(=O)c2nc(C3CC3)sc2-c2cccc(OC)c2)C1 [Ex. 6.31]" parameter_measured=IC50 reported_measurement=22
compound="COc1cccc(-c2sc(C)nc2C(=O)N2CC[C@H](C)[C@H]2c2nc3cc(C(F)(F)F)ccc3[nH]2)c1 [Ex. 4.137]" parameter_measured=IC50 reported_measurement=3090

[Q] Lookup: IC50 / human orexin-2 receptor (Homo sapiens (Human), UniProt O43614) / C=C1C[C@@H](c2nc3c(C)cccc3[nH]2)N(C(=O)c2nc(C)sc2-c2ccc(C)c(C)c2)C1 [Ex. 6.53]
[A] 1

###

biological target: human orexin-2 receptor (Homo sapiens (Human)); experiment: In vitro assay: intracellular calcium measurements (FLIPR), antagonistic activity; settings: CHO cells expressing human orexin-2 receptor, orexin-A agonist, geometric mean, read-out: IC50 Ox2
Parameter Measured: IC50 (nM)
Numbers only, in nM.

Example entries begin here.
compound=Cc1ccc(-n2nccn2)c(C(=O)N2CCC[C@@]2(C)c2nc3cc(C(C)(C)C)ccc3[nH]2)c1 units=nM reported_measurement=31
compound=COc1cccc2nc([C@@H]3CCCN3C(=O)c3nc(C)sc3-c3cccc(Cl)c3)[nH]c12 units=nM reported_measurement=54
compound=C=C1C[C@@H](c2nc3cc(OC)ccc3[nH]2)N(C(=O)c2cc(C)sc2-c2ccc(C)c(C)c2)C1 units=nM reported_measurement=2
compound=COc1cc2nc([C@]3(C)CCCN3C(=O)c3ncsc3-c3cccc(Cl)c3)[nH]c2cc1OC units=nM reported_measurement=360
compound=COc1cc2nc([C@@H]3[C@@H](C)CCN3C(=O)c3nc(C)sc3-c3cc(F)cc(F)c3)[nH]c2cc1OC units=nM reported_measurement=1070
compound=Cc1nc(C(=O)N2CC[C@H](C)[C@H]2c2nc3c(F)c(F)ccc3[nH]2)c(-c2cccc(Cl)c2)s1 units=nM reported_measurement=1940
compound=COc1cc2nc([C@@H]3[C@@H](C)CCN3C(=O)c3cc(F)ccc3-n3nccn3)[nH]c2cc1OC units=nM reported_measurement=248
compound="Cc1nc(C(=O)N2CCCC2c2nc3cc(Cl)c(Cl)cc3[nH]2)c(-c2cccc(Cl)c2)s1 (stereo not drawn)" units=nM reported_measurement=69
compound=COc1cc2nc([C@@H]3[C@@H](C)CCN3C(=O)c3cc(Cl)ccc3-n3nccn3)[nH]c2cc1OC units=nM reported_measurement=28
compound=Cc1ccc(-c2nc(C(=O)N3CCC[C@@]3(C)c3nc4c(C)c(Cl)ccc4[nH]3)c(-c3ccc(F)cc3)s2)cc1 units=nM reported_measurement=2060

Parameter requested: IC50. Apply to each item below.
1. CSc1cccc2nc([C@@H]3CCCN3C(=O)c3nc(C4CC4)sc3-c3ccccc3)[nH]c12
2. CSc1cccc2nc([C@@H]3CCCN3C(=O)c3cnc(C)nc3-c3cc(Cl)cc(Cl)c3)[nH]c12

[A]
[21, 25]
